Listed here are substances together with their documented APOE RNA (% control) Spinal Cord.
Test system: human APOE RNA
Experiment: Activity in APOE C57BL/6NTac-Apoeem7250 knock-in mice, single ICV bolus, 16 weeks (Example 12)
Format: in vivo
Conditions: spinal cord; single ICV bolus 300 μg; 16 weeks post treatment; normalized to mouse Ppia
Strand notation (5' to 3'): a small letter for the sugar, then the base; units joined by * are phosphorothioate-linked, units joined directly phosphodiester-linked; [ ] holds rarer units or linkages, { } end groups; capitals alone tell only the bases. [ms] = mesyl phosphoramidate linkage; e = 2'-O-(2-methoxyethyl) (MOE); k = constrained ethyl (cEt); [5mC] = 5-methylcytosine; d = 2'-deoxy (DNA)
Write the number in % control without appending the unit.

substance	tgt	APOE RNA (% control) Spinal Cord
1693071: 5-10-5 MOE gapmer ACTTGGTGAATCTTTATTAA, linkages ssssssszzzzzsssosss (antisense eA*e[5mC]*eT*eT*eG*dG*dT*dG[ms]dA[ms]dA[ms]dT[ms]d[5mC][ms]dT*dT*dT*eAeT*eT*eA*eA) [compound 1693071]	human APOE RNA	66

Proceeding to the next substance to report its APOE RNA (% control) Spinal Cord.
Considering 1778123: modified oligonucleotide complementary to human APOE RNA (eA*e[5mC]eTeTeG*eG*dT*dG[ms]dA[ms]dA*dT*d[5mC]*dT*dT*dT*dA[ms]kTkT*eA*eA; antisense) [compound 1778123] , its APOE RNA (% control) Spinal Cord with human APOE RNA was recorded as 31
